Measured Ki accompanies every entry in the list below.
target: recombinant human CL receptor/RAMP1 (Homo sapiens (Human), UniProt O60894+Q16602); assay: Human CGRP receptor binding (recombinant receptor binding assay, 125I-hCGRP); details: read-out: Human CGRP receptor binding Ki
Sequence (Q16602 23-461): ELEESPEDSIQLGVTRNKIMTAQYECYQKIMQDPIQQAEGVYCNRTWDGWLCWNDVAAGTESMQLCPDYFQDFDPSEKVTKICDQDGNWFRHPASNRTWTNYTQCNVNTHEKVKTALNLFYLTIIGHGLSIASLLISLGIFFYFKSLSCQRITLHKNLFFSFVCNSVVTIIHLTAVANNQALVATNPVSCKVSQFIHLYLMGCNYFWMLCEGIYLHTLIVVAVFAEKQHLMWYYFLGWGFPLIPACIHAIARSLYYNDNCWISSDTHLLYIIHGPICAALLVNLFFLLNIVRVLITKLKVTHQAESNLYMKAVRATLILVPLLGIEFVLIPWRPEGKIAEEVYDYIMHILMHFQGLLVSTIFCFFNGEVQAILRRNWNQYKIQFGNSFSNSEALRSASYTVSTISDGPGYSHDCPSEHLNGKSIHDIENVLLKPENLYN
Sequence (O60894 27-148): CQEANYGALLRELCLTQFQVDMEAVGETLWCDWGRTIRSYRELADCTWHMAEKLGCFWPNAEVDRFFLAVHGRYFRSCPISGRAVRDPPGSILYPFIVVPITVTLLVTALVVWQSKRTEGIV
PARAMETER_MEASURED: Ki (nM)

> print(dat)
                                   compound  readout.unit  value.reported
1  CC(C)(C)C(=O)N(CCCc1ccc2c(c1)CC1(C2)C(=O)Nc2ncccc21)Cc1ccccc1 (stereo not drawn)            nM              45
2  CC(C)(CF)C(=O)N(C/C=C/c1cnc2c(c1)C[C@@]1(C2)C(=O)Nc2ncccc21)[C@@H]1CCc2ccccc21            nM            0.06
3  CC(C)(C)C(=O)N(CC#Cc1ccc2c(c1)CC1(C2)C(=O)Nc2ncccc21)Cc1ccccc1 (stereo not drawn)            nM              20

----------
target: recombinant human CL receptor/RAMP1 (Homo sapiens (Human), UniProt O60894+Q16602); assay: Human CGRP receptor binding (recombinant receptor binding assay, 125I-hCGRP); conditions: read-out: Ki
pKi: −log10 of the molar value.
Measured pKi accompanies every entry in the list below.
PARAMETER_MEASURED: pKi

> print(dat)
                            chemical.string                                 tested.on  parameter.measured  value.reported
1  C[C@H](c1cc(F)cc(F)c1)N(C/C=C/c1cnc2c(c1)C[C@@]1(C2)C(=O)Nc2ncccc21)C(=O)C1(C(F)(F)F)CC1  recombinant human CL receptor/RAMP1 (Homo sapiens (Human), UniProt O60894+Q16602)                 pKi           10.30
2  C[C@H](c1cc(F)cc(F)c1)N(C/C=C/c1cnc2c(c1)C[C@@]1(C2)C(=O)Nc2ncccc21)C(=O)C(C)(C)CCl  recombinant human CL receptor/RAMP1 (Homo sapiens (Human), UniProt O60894+Q16602)                 pKi           10.19
3  Cc1ccc([C@@H](C)N(C/C=C/c2cnc3c(c2)C[C@@]2(C3)C(=O)Nc3ncccc32)C(=O)C(C)(C)C)cc1F  recombinant human CL receptor/RAMP1 (Homo sapiens (Human), UniProt O60894+Q16602)                 pKi            9.89
4  C[C@H](c1cc(F)cc(F)c1)N(C/C=C/c1ccc2c(c1)C[C@@]1(C2)C(=O)NC(=O)N1C)C(=O)C(C)(C)C  recombinant human CL receptor/RAMP1 (Homo sapiens (Human), UniProt O60894+Q16602)                 pKi            9.37
5  C[C@H](c1cc(F)cc(F)c1)N(C/C=C/c1cnc2c(c1)C[C@@]1(C2)C(=O)Nc2ncccc21)C(=O)C(C)(C)CF  recombinant human CL receptor/RAMP1 (Homo sapiens (Human), UniProt O60894+Q16602)                 pKi           10.39
